Tested on: Candida parapsilosis and spores of Aspergillus niger
experiment summary: summary of tests with Candida parapsilosis and spores of Aspergillus niger
Assay type: cell-based
Set-up: key: + = low but significant; ++ = good; +++ = very good
assay setup: plant protection agent in mixtures (M1-M7, Table 2)
quantity kind: synergistic effect in mixtures

Sample answers from the record:
{"compound": "[Cl-].[Cu+2].[Cu+2].[OH-].[OH-].[OH-]", "study target": "Candida parapsilosis and spores of Aspergillus niger", "synergistic effect in mixtures": "++"}
{"compound": "OC(Cc1ccccc1Cl)(Cn1nc[nH]c1=S)C1(Cl)CC1 (stereo not drawn)", "study target": "Candida parapsilosis and spores of Aspergillus niger", "synergistic effect in mixtures": "+"}
{"compound": "CO/C=C(/C(=O)OC)c1ccccc1Oc1cc(Oc2ccccc2C#N)ncn1", "study target": "Candida parapsilosis and spores of Aspergillus niger", "synergistic effect in mixtures": "+"}
{"compound": "N#Cc1c(Cl)c(Cl)c(Cl)c(C#N)c1Cl", "study target": "Candida parapsilosis and spores of Aspergillus niger", "synergistic effect in mixtures": "++"}
{"compound": "CCNC(=O)NC(=O)/C(C#N)=N/OC [F3, Curzate]", "study target": "Candida parapsilosis and spores of Aspergillus niger", "synergistic effect in mixtures": "+++"}

Next:
Could you tell me which synergistic effect in mixtures is on file for `CCCOC(=O)NCCCN(C)C` ?
+

Values were extracted from patent US9980482B2.
